Give measured slope for each item. Keep answers brief.
Target: Alpha-2C adrenergic receptor (Homo sapiens) (UniProt P18825)
Sequence (P18825 whole entry, looked up): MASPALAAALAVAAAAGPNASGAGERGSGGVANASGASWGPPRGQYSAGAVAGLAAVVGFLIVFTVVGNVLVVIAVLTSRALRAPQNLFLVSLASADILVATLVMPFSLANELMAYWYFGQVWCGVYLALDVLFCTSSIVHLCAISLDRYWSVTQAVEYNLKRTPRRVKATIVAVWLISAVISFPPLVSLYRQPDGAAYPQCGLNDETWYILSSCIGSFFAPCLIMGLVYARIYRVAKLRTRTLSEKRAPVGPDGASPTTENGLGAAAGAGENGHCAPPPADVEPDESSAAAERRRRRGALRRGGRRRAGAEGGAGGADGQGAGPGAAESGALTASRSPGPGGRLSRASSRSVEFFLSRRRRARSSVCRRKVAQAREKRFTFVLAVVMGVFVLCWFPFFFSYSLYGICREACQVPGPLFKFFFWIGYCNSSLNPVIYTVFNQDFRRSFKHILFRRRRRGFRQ
Experiment: compounds altering alpha2C-coupled GIRK flux – cell-based, HEK293 alpha2C/GIRK1/2, thallium flux, primary screen (AID 624);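 also: slope of fluorescence ratio to pre-addition baseline per second over 15 to 24 s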
Conditions: thallium flux BTC fluorescence, at 10 µM, actives lie on both sides
Give bare numbers.

{"INPUT SMILES": "CNC(=O)CSc1nnc(-c2cc3c(C)nn(-c4ccccc4)c3s2)n1C", "slope": 0.00659}
{"INPUT SMILES": "Cc1ccc(-c2cn3nc(C)c(C)nc3n2)cc1", "slope": 0.00494}
{"INPUT SMILES": "CCOc1cc(NC(=O)c2ccco2)c(OCC)cc1NC(=O)CCC(=O)NCc1cccnc1", "slope": 0.00315}
{"INPUT SMILES": "O=C(COC(=O)c1ccccc1O)Nc1ccc(OC(F)F)cc1", "slope": 0.00583}
{"INPUT SMILES": "CCN(CCNC(=O)C1CCN(S(C)(=O)=O)CC1)c1ccccc1", "slope": 0.00548}

Note to self: slope recorded for O=C(O)c1cc(Cl)c(Cl)cc1C(=O)N1CCCC1 was 0.00644
